I'd appreciate it if you could supply Tmax values for the items below.
procedure.text: in vivo
condition.parameters: male, C57BL/6J, mouse, po, 10 mg/kg
Could you write the number and then its unit?

* O=C(O)Cc1ccc(Cc2cc(-c3cccc(Cl)c3)nc(C(F)(F)F)c2)cc1 | 2 h

Kindly review the next compound as well.
Please report the recorded Tmax for O=C(Nc1c(Cl)cncc1Cl)c1ccc(OC(F)F)c(OCC2CC2)c1 . 2.33 h

----------
procedure.text: In vitro protein-binding assay using equilibrium dialysis, plasma
Type: in vitro ADME, mouse
condition.parameters: mouse, plasma
measured.attribute: fraction unbound at 4 h, 5 µM
Answers are plain numbers.

// fraction unbound at 4 h, 5 µM lookup, key: O=C(Nc1c(Cl)cncc1Cl)c1ccc(OC(F)F)c(OCC2CC2)c1 0.0126

----------
procedure.text: in vivo
condition.parameters: male, C57BL/6J, mouse, iv, 1 mg/kg
measured.attribute: Vd
I'd appreciate it if you included the unit after the number.

Record request: Vd value, item O=C(O)Cc1ccc(Cc2cc(-c3cccc(Cl)c3)nc(C(F)(F)F)c2)cc1 0.07 L/kg

----------
procedure.text: Bidirectional MDR1-MDCK monolayer permeability
Format: in vitro ADME, canine
condition.parameters: dog, MDCK-MDR1; over 3, 10, and 30 µM; read-out: Efflux ratios (ERs)
Protocol: MDR1-MDCK cells were seeded at a density of 2 × 10^5 cells/well on the apical side of 24-transwell plates with a pore size of 0.4 μm (Corning Costar, Cambridge, MA, USA). […] Before the experiment, the transepithelial electrical resistance was measured using an epithelial voltohmmeter (Millicell ERS-2; Millipore), where 300 ohms or greater was considered to indicate the formation of a cell monolayer with tight junctions. […]
measured.attribute: efflux ratio

What measured efflux ratio goes with O=C(O)Cc1ccc(Cc2cc(-c3cccc(Cl)c3)nc(C(F)(F)F)c2)cc1 ? < 1.92

----------
Exercise: for every item that follows, state its recorded Cmax.
procedure.text: in vivo
condition.parameters: male, C57BL/6J, mouse, po, 10 mg/kg
Answers are plain numbers, in ng/mL.

* O=C(Nc1c(Cl)cncc1Cl)c1ccc(OC(F)F)c(OCC2CC2)c1 [roflumilast] | 150

Next molecule, please.
Could you tell me which Cmax is on file for O=C(O)Cc1ccc(Cc2cc(-c3cccc(Cl)c3)nc(C(F)(F)F)c2)cc1 [zatolmilast] ? 2530

Values compiled from paper PMC10391911.
